koff reference
ASSAYED TARGET: T1, human transferrin receptor (BIAcore, construct not stated) (human, UniProt P02786 89-760)
T1 construct: also called huTfR
T1 sequence (P02786 89-760): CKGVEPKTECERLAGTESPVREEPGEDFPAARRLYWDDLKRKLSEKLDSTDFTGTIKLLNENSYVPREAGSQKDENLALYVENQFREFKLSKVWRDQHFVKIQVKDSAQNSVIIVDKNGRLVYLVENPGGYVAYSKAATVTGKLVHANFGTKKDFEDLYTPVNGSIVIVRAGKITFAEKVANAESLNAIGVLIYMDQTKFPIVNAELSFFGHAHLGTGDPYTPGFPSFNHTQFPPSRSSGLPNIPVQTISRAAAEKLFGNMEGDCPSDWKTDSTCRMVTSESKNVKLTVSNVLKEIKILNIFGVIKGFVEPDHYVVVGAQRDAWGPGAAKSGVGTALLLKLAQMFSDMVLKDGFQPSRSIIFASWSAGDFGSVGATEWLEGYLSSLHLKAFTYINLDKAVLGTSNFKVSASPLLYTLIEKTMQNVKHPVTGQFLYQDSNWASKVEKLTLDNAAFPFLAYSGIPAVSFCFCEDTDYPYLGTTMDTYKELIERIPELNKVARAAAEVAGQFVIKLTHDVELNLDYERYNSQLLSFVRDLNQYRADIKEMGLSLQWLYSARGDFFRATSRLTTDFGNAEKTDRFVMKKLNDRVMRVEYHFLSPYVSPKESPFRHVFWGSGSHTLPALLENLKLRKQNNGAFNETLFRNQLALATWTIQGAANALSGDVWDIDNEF
MEASUREMENT NOTES: SPR, 25 C
Give the number; s⁻¹ is assumed, so skip it.

{"BINDER": "clone 299 VH 21 / VL 9-NYA (antibody, V domains shown) VH: QSMQESGPGLVKPSQTLSLTCTVSGFSLSSYAMSWIRQHPGKGLEWIGYIWSGGSTDYASWAKSRVTISVDTSKNQVSLKLSSVTAADTAVYYCARRYGTSYPDYGDANGFDPWGQGTLVTVSS VL: AIQLTQSPSSLSASVGDRVTITCRASQSISSYLAWYQQKPGKAPKLLIYRASTLASGVPSRFSGSGSGTDFTLTISSLQPEDFATYYCQQNYASSNVDNTFGGGTKVEIK", "UNIT DESCRIPTOR": "s⁻¹", "ENDPOINT RESULT": 0.00113}
{"BINDER": "clone 299 VH 7 / VL 0 (rb) (antibody, V domains shown) VH: QQLVETGGGLIQPGGSLRLSCAASGFSLSSYAMSWVRQAPGKGLEWIGYIWSGGSTDYASWAKGRFTISRDNSKNTLYLQMNSLRAEDTAVYYCARRYGTSYPDYGDANGFDPWGQGTLVTVSS VL: AYDMTQTPASVEVAVGGTVTIKCQASQSISSYLSWYQQKPGQRPKLLIYRASTLASGVSSRFKGSGSGTQFTLTISGVECADAATYYCQQCYSSSNVDNTFGGGTEVVVK", "UNIT DESCRIPTOR": "s⁻¹", "ENDPOINT RESULT": 0.000515}

Query string: Requested read-out: koff. Entry: clone 299 VH 9 / VL 0 (rb) (antibody, V domains shown) VH: QQLLESGGGLVQPGGSLRLSCAASGFTFSSYAMSWVRQAPGKGLEWVGYIWSGGSTDYADSVKGRFTISRDNSKNTLYLQMNSLRAEDTAVYYCAKRYGTSYPDYGDANGFDPWGQGTLVTVSS VL: AYDMTQTPASVEVAVGGTVTIKCQASQSISSYLSWYQQKPGQRPKLLIYRASTLASGVSSRFKGSGSGTQFTLTISGVECADAATYYCQQCYSSSNVDNTFGGGTEVVVK
Result string: 0.000901

Query string: Returns the measured koff for the input binder. Input: clone 299 VH 16 / VL 9-NYA (antibody, V domains shown) VH: QQLQESGPGLVKPSETLSLTCTVSGFSLSSYAMSWVRQPPGKGLEWIGYIWSGGSTDYNPSLKSRVTISVDTSKNQVSLKLSSVTAADTAVYYCARRYGTSYPDYGDANGFDPWGPGTLVTVSS VL: AIQLTQSPSSLSASVGDRVTITCRASQSISSYLAWYQQKPGKAPKLLIYRASTLASGVPSRFSGSGSGTDFTLTISSLQPEDFATYYCQQNYASSNVDNTFGGGTKVEIK
Result string: 0.00136

Query string: GET /values?readout=koff&item= clone 299 VH 12 / VL 9-NYA (antibody, V domains shown) VH: QVQLQESGPGLVKPSETLSLTCTVSGFSLSSYAMSWIRQPPGKGLEWIGYIWSGGSTDYNPSLKSRVTISVDTSKNQFSLKLSSVTAADTAVYYCARRYGTSYPDYGDANGFDPWGQGTLVTVSS VL: AIQLTQSPSSLSASVGDRVTITCRASQSISSYLAWYQQKPGKAPKLLIYRASTLASGVPSRFSGSGSGTDFTLTISSLQPEDFATYYCQQNYASSNVDNTFGGGTKVEIK
Result string: 0.00219

Query string: # query: koff of entry clone 299 VH 0 (rb) / VL 10 (antibody, V domains shown) VH: QSMEESGGRLVTPGTPLTLTCTVSGFSLSSYAMSWVRQAPGKGLEWIGYIWSGGSTDYASWAKGRFTISKTSTTVDLKITSPTTEDTATYFCARRYGTSYPDYGDANGFDPWGPGTLVTVSS VL: DIQMTQSPSSLSASVGDRVTITCRASQSISSYLSWYQQKPGKAPKLLIYRASTLASGVPSRFSGSRSGTDFTLTISSLQPEDFATYYCQQSYSSSNVDNTFGGGTKVEIK
Result string: 0.00188
